Item-by-item account of pKd
B1: NELF-E aptamer (parent)
chain: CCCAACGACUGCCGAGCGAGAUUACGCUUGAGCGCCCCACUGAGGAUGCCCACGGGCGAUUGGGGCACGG

variants of: B1; assay: HiTS-RAP; settings: with NELF-E (Drosophila)
pKd: −log10 of the molar value.
metric: pKd

mutation_spec="G11U G16A" recorded_number=8.22
mutation_spec="A4G U60G" recorded_number=8.16
mutation_spec="C13G C33U" recorded_number=8.24
mutation_spec="C17G A31G" recorded_number=8.23
mutation_spec="G7U A15G" recorded_number=8.26
mutation_spec="A24G A52G" recorded_number=8.29
mutation_spec=U60C recorded_number=8.03
mutation_spec="C6G G62U" recorded_number=8.14
mutation_spec="C6G C40G" recorded_number=8.08
mutation_spec=C9U recorded_number=8.28
mutation_spec="U22G G65U" recorded_number=8.21
